From: patent US4942245A

Catalogue of Inhibition (%) of LTD4-induced bronchoconstrictor response values
- Tested on: leukotriene D4
- assay.name: Leukotriene D4-induced bronchoconstriction (modified Konzett-Rossler, transpulmonary pressure) in anesthetized guinea pig, oral administration
- Type: in vivo, male Hartley guinea pig
- condition.label: 200 mg/kg, p.o., 2 hours before leukotriene D4 (3 μg/kg, i.v.)
measure.name: Inhibition (%) of LTD4-induced bronchoconstrictor response

# compound, target.system, reported.value
data = [
    ("CCCc1c(OCCCCCSc2nc3cc(C(=O)O)ccc3[nH]2)ccc(C(C)=O)c1O [Example 24]", "leukotriene D4", "57.1%"),
    ("CCCc1c(OCCCSc2nc3ccc(C(=O)O)cc3[nH]2)ccc(C(C)=O)c1O [Example 1]", "leukotriene D4", "63.3%"),
    ("CCCc1c(OCCCCc2nc3ccc(C(=O)O)cc3[nH]2)ccc(C(C)=O)c1O [Example 36]", "leukotriene D4", "88.6%"),
    ("CCCc1c(OCCCS(=O)(=O)c2nc3ccc(C(=O)O)cc3[nH]2)ccc(C(C)=O)c1O [Example 6]", "leukotriene D4", "40.5%"),
    ("CCCc1c(OCCCC[S+]([O-])c2nc3cc(C(=O)O)ccc3[nH]2)ccc(C(C)=O)c1O (centres unmarked) [Example 12]", "leukotriene D4", "33.3%"),
]
